- target.of.assay: β-adrenergic receptor (Cavia porcellus, UniProt H0W3H1)
- Construct: isolated guinea pig atria preparation; from tissue; host or cells: guinea pig atria
- Sequence (H0W3H1 1-470): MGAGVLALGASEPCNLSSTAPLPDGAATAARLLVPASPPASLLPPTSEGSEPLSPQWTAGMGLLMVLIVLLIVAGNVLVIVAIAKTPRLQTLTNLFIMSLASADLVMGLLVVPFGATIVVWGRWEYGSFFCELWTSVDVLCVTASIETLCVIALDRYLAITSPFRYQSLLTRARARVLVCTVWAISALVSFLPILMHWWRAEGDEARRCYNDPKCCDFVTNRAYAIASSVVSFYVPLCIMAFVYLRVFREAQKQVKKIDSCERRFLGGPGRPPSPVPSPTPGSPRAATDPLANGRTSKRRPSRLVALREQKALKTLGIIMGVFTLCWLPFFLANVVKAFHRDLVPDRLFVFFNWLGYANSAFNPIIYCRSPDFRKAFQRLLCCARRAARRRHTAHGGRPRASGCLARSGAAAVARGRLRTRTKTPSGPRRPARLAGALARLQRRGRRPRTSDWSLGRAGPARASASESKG
- experiment.description: β-Adrenergic receptor blocking activity in vitro, isolated guinea pig atria preparation, isoproterenol as agonist
- Assay type: cell-based
- test.parameters: isolated guinea pig atria (increase in rate), read-out: pA2 β (converted)
Structures can show the parent of a compound that is named as a salt.
measured.property: Kb (µM)
Report the figure in µM without appending any unit label.

## Task So what's the measured Kb for this one? COC(=O)c1cc(C(O)CN2CCC(n3c(=O)[nH]c4ccccc43)CC2)ccc1O (stereo not shown) [Compound 1, hydrochloride]
## Result 1.95

Proceeding to the next compound to report its Kb.
## Task So what's the measured Kb for this one? NC(=O)c1cc(C(O)CN2CCC(n3c(=O)[nH]c4ccccc43)CC2)ccc1O (stereo not shown) [Compound 2, hydrochloride monohydrate]
## Result 3.55

# credit: patent US4200755A
